Data provenance is paper PMC11040699.

Target: recombinant mouse α-Klotho (mouse) (UniProt O35082)
Sequence (O35082 35-1014): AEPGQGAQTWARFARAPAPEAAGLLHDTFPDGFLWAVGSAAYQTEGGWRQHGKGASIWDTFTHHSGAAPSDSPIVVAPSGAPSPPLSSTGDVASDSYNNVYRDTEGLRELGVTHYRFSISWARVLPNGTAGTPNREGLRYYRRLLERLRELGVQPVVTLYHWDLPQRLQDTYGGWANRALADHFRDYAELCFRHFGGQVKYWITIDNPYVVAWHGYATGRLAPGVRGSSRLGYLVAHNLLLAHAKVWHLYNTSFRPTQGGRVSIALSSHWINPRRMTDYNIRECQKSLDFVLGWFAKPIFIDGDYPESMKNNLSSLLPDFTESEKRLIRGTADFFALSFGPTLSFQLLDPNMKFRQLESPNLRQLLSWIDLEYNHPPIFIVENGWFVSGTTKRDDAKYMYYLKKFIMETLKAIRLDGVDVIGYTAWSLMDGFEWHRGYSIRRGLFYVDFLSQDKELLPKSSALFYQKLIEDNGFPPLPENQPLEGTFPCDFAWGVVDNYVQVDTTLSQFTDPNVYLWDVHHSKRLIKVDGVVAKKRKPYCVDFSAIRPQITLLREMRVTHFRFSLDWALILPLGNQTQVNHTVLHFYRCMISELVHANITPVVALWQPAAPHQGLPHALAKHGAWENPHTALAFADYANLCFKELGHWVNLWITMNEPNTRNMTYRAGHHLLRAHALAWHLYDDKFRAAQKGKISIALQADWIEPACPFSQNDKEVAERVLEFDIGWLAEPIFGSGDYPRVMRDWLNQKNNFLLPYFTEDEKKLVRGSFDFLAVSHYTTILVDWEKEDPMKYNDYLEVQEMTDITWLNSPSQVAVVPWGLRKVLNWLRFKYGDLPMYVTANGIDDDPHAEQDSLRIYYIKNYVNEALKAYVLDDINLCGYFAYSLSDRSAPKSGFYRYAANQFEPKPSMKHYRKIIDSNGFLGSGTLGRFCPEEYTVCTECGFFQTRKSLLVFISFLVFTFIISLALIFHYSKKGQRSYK
Assay: BLI
No end group written: not given here.
parameter.measured: Kd (nM)

binder | Kd [nM]
fluorenyl-ASDPLGVVRGRA [K12] | 19

I = fluorenyl-ASDPLGVVRGRAR (not fully specified (C-terminus)) [K17]
II = fluorenyl-ASDPLGVVRPRA [K4]
III = fluorenyl-PMASDPLGVVRARARM [K1 P12A]
IV = PMASDPLGVVRPRARM [Pep-10]
V = fluorenyl-PMASDPLGVVRPRARM [K1]
[ask] Parameters: sort_field (Kd), sort_dir (desc). Note for the reader: the ranking is given by listing the labels in the order requested.
[reply] IV, II, V, III, I
